- test-system: Prolyl endopeptidase (Mus musculus) (UniProt Q9QUR6)
- Sequence (Q9QUR6 whole entry, looked up): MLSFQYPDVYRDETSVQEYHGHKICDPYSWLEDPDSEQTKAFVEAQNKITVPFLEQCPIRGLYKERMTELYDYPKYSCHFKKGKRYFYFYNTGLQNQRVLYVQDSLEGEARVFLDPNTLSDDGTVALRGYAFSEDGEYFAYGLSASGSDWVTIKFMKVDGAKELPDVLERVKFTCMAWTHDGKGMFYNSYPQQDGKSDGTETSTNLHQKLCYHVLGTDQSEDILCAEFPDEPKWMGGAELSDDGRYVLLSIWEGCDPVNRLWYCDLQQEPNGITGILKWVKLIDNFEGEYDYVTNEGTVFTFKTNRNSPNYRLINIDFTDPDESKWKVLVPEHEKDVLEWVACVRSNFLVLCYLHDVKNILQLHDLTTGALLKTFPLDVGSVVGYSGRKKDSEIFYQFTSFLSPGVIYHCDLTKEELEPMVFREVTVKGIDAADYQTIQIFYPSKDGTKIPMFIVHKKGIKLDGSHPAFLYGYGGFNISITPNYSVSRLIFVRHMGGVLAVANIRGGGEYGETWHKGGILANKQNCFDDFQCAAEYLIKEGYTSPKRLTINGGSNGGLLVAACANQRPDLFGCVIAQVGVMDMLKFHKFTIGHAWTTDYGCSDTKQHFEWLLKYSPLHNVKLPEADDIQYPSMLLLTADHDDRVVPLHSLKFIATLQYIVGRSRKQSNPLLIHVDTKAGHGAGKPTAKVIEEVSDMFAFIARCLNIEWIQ
- assay-comment: competitive ABPP of Abhd10 versus anti-targets – biochemical, fluorescence, gel-based, mouse proteome, selectivity assay for PME-1 inhibitor project, late-stage follow-up (AID 588807)
- condition-set: PREP, anti-target, at 10 µM, hits give high values
Give inhibition for every item shown.
# value in %; strip the unit string

Bench note: what inhibition did CC[C@@]1(c2cccc(C)c2)C(=O)N(C(=O)OC(C)C)N1C(=O)OC(C)C show?
55

Similarly, CCC[C@@]1(c2cccc(C)c2)C(=O)N(C(=O)OC)N1C(=O)OC ?
0

Similarly, CC[C@]1(c2cccc(C)c2)C(=O)N(C(=O)OC)N1C(=O)OC ?
0

Similarly, CC[C@@]1(c2cccc(C)c2)C(=O)N(C(=O)OC(C)C)N1C(=O)OC ?
30

Similarly, CC[C@@]1(c2ccccc2)C(=O)N(C(=O)OC(C)C)N1C(=O)OC(C)C ?
70
